# test_description: Clearance in iv dosed CD-1 mouse measured at 0.083 to 24 hrs by LC-MS/MS analysis
# Type: ADME, organism-based
# assay_context: in vivo, time 0.083-24 hrs
measure: clearance (mL/min/kg)
Output spec: scalar in mL/min/kg, unitless text.

q: Which clearance is listed for Cc1nc(N2CCC3(CC2)CO[C@@H](C)[C@H]3N)cc(=O)n1-c1cccc(Cl)c1Cl (stereo in doubt) ?
a: 9.2

q: Which clearance is listed for Cc1nc(N2CCC3(CC2)CO[C@@H](C)[C@H]3N)c(Cl)c(=O)n1-c1cccc(Cl)c1Cl ?
a: 11.6

###

Overview of reported CLint scaled across a group of molecules:
# test_description: Metabolic stability in mouse microsome assessed as intrinsic clearance incubated for 45 mins in presence of NADPH regenerating system by LC-MS/MS analysis
# Format: ADME
# assay_context: microsomes, read-out: CLH
Output spec: scalar in mL/min/kg, unitless text.

* Cc1nc(N2CCC3(CC2)CO[C@@H](C)[C@H]3N)c(Cl)c(=O)n1-c1cccc(Cl)c1Cl | 37

Attention now turns to another entry.
q: Which CLint scaled is listed for Cc1nc(N2CCC3(CC2)CO[C@@H](C)[C@H]3N)cc(=O)n1-c1cccc(Cl)c1Cl (stereo in doubt) ?
a: 28

###

# test_description: Permeability of compound across apical to basolateral side in dog wild type MDCK-MDR1 cells
# Format: ADME, cell-based, Canis lupus familiaris
# assay_context: read-out: permeability
Overview of reported Papp A→B across a group of compounds:
Output spec: scalar in ×10⁻⁶ cm/s, unitless text.

Example cases with answers are listed next.
• CNc1nccc(-c2n[nH]c3nc(N4CCC(C)(N)CC4)cnc23)c1Cl = 2.1
• CC1(N)CCN(c2cnc3c(-c4cccc(Cl)c4Cl)n[nH]c3n2)CC1 = 6
• N[C@@H]1CCCC12CCN(c1nc3[nH]nc(-c4cccc(Cl)c4Cl)c3c(=O)[nH]1)CC2 = 0.3
• C[C@@H]1OCC2(CCN(c3cnc4c(-c5cccc(Cl)c5Cl)n[nH]c4n3)CC2)[C@@H]1N = 6.4

Attention now turns to another entry.
q: Which Papp A→B is listed for CCNc1nccc(-c2n[nH]c3nc(N4CCC5(CC4)CO[C@@H](C)[C@H]5N)cnc23)c1Cl ?
a: 8.6

###

Overview of reported Papp B→A across a group of compounds:
# test_description: Permeability of compound across basolateral to apical side in dog MDCK-MDR1 cells
# Format: ADME, cell-based, Canis lupus familiaris
Output spec: scalar in ×10⁻⁶ cm/s, unitless text.

* Cc1nc(N2CCC3(CC2)CO[C@@H](C)[C@H]3N)c(Cl)c(=O)n1-c1cccc(Cl)c1Cl | 19

Attention now turns to another entry.
q: Which Papp B→A is listed for Cc1nc(N2CCC3(CC2)CO[C@@H](C)[C@H]3N)cc(=O)n1-c1cccc(Cl)c1Cl (stereo in doubt) ?
a: 32

###

# test_description: Half life in Sprague-Dawley rat 1 mg/kg, iv measured at 0.083 to 24 hrs by LC-MS/MS analysis
# Format: ADME, organism-based
# assay_context: in vivo, time 0.083-24 hrs
measure: half-life (h)
Output spec: scalar in h, unitless text.

q: Which half-life is listed for CC1(N)CCN(c2cnc3c(-c4cccc(Cl)c4Cl)n[nH]c3n2)CC1 ?
a: 13

###

# test_description: Permeability of compound across basolateral to apical side in dog wild type MDCK-MDR1 cells
# Format: ADME, cell-based, Canis lupus familiaris
# assay_context: read-out: permeability
# cutoff 10 ×10⁻⁶ cm/s applies to Papp B→A; >= gives 1, < gives -1

* CCNc1nccc(-c2n[nH]c3nc(N4CCC5(CC4)CO[C@@H](C)[C@H]5N)cnc23)c1Cl | 1

q: Determine whether measured Papp B→A meets or exceeds 10 ×10⁻⁶ cm/s for N[C@@H]1CCCC12CCN(c1nc3[nH]nc(-c4cccc(Cl)c4Cl)c3c(=O)[nH]1)CC2
a: -1

q: Determine whether measured Papp B→A meets or exceeds 10 ×10⁻⁶ cm/s for CC1(N)CCN(c2cnc3c(-c4cccc(Cl)c4Cl)n[nH]c3n2)CC1
a: -1

q: Determine whether measured Papp B→A meets or exceeds 10 ×10⁻⁶ cm/s for CNc1nccc(-c2n[nH]c3nc(N4CCC(C)(N)CC4)cnc23)c1Cl
a: 1

###

Overview of reported clearance across a group of compounds:
# test_description: Clearance in iv dosed Beagle dog measured at 0.083 to 24 hrs by LC-MS/MS analysis
# Format: ADME, organism-based, Canis lupus familiaris
# assay_context: in vivo, time 0.083-24 hrs
Output spec: scalar in mL/min/kg, unitless text.

* Cc1nc(N2CCC3(CC2)CO[C@@H](C)[C@H]3N)cc(=O)n1-c1cccc(Cl)c1Cl (stereo in doubt) | 4.2

Attention now turns to another entry.
q: Which clearance is listed for Cc1nc(N2CCC3(CC2)CO[C@@H](C)[C@H]3N)c(Cl)c(=O)n1-c1cccc(Cl)c1Cl ?
a: 9.2

###

Overview of reported Papp A→B across a group of compounds:
# test_description: Permeability of compound across apical to basolateral side in dog wild type MDCK cells
# Assay type: ADME, cell-based, Canis lupus familiaris
# assay_context: read-out: permeability
Output spec: scalar in ×10⁻⁶ cm/s, unitless text.

Example cases with answers are listed next.
* CC1(N)CCN(c2cnc3c(-c4cccc(Cl)c4Cl)n[nH]c3n2)CC1 | 6
* CCNc1nccc(-c2n[nH]c3nc(N4CCC5(CC4)CO[C@@H](C)[C@H]5N)cnc23)c1Cl | 12.4
* N[C@@H]1CCCC12CCN(c1nc3[nH]nc(-c4cccc(Cl)c4Cl)c3c(=O)[nH]1)CC2 | 0.27
* CNc1nccc(-c2n[nH]c3nc(N4CCC(C)(N)CC4)cnc23)c1Cl | 4.2

Attention now turns to another entry.
q: Which Papp A→B is listed for C[C@@H]1OCC2(CCN(c3cnc4c(-c5cccc(Cl)c5Cl)n[nH]c4n3)CC2)[C@@H]1N ?
a: 9

###

# test_description: Oral bioavailability in […] Sprague-Dawley rat measured at 0.083 to 24 hrs by LC-MS/MS analysis
# Type: ADME, organism-based
# assay_context: in vivo, time 0.083-24 hrs
measure: bioavailability

• Cc1nc(N2CCC3(CC2)CO[C@@H](C)[C@H]3N)c(Cl)c(=O)n1-c1cccc(Cl)c1Cl = 38%

Attention now turns to another entry.
q: Which bioavailability is listed for Cc1nc(N2CCC3(CC2)CO[C@@H](C)[C@H]3N)cc(=O)n1-c1cccc(Cl)c1Cl (stereo in doubt) ?
a: 80%

###

# test_description: Clearance in iv dosed Sprague-Dawley rat measured at 0.083 to 24 hrs by LC-MS/MS analysis
# Type: ADME, organism-based
# assay_context: in vivo, time 0.083-24 hrs
measure: clearance (mL/min/kg)
Output spec: scalar in mL/min/kg, unitless text.

- Cc1nc(N2CCC3(CC2)CO[C@@H](C)[C@H]3N)c(Cl)c(=O)n1-c1cccc(Cl)c1Cl: 41.3

q: Which clearance is listed for Cc1nc(N2CCC3(CC2)CO[C@@H](C)[C@H]3N)cc(=O)n1-c1cccc(Cl)c1Cl (stereo in doubt) ?
a: 5.8

###

# test_description: Clearance in Sprague-Dawley rat 0.3 mg/kg, iv measured at 0.083 to 24 hrs by LC-MS/MS analysis
# Assay type: ADME, organism-based
# assay_context: in vivo, time 0.083-24 hrs
measure: clearance (mL/min/kg)
Output spec: scalar in mL/min/kg, unitless text.

• N[C@@H]1CCCC12CCN(c1nc3[nH]nc(-c4cccc(Cl)c4Cl)c3c(=O)[nH]1)CC2 = 12

q: Which clearance is listed for CNc1nccc(-c2n[nH]c3nc(N4CCC(C)(N)CC4)cnc23)c1Cl ?
a: 37

###

Overview of reported bioavailability across a group of compounds:
# test_description: Oral bioavailability in Beagle dog measured at 0.083 to 24 hrs by LC-MS/MS analysis
# Format: ADME, organism-based, Canis lupus familiaris
# assay_context: in vivo, time 0.083-24 hrs
Output spec: scalar in %, unitless text.

• Cc1nc(N2CCC3(CC2)CO[C@@H](C)[C@H]3N)c(Cl)c(=O)n1-c1cccc(Cl)c1Cl = 88

Attention now turns to another entry.
q: Which bioavailability is listed for Cc1nc(N2CCC3(CC2)CO[C@@H](C)[C@H]3N)cc(=O)n1-c1cccc(Cl)c1Cl (stereo in doubt) ?
a: 106

###

# test_description: Half life in Sprague-Dawley rat 0.3 mg/kg, iv measured at 0.083 to 24 hrs by LC-MS/MS analysis
# Assay type: ADME, organism-based
# assay_context: in vivo, time 0.083-24 hrs
Overview of reported half-life across a group of molecules:
I'd appreciate it if you wrote the number followed by its unit.

- N[C@@H]1CCCC12CCN(c1nc3[nH]nc(-c4cccc(Cl)c4Cl)c3c(=O)[nH]1)CC2: 162 min

Attention now turns to another entry.
q: Which half-life is listed for CNc1nccc(-c2n[nH]c3nc(N4CCC(C)(N)CC4)cnc23)c1Cl ?
a: 288 min
